// inhibition lookup, one value per entry
# Assay details: Antioxidant activity assessed as inhibition of lipid peroxidation at 300 uM by ferric thiocyanate method
# Assay type: functional

Smiles code	Units text	inhibition
O=C(/C=C/C=C/c1ccc(O)cc1)/C=C/c1ccc(O)cc1	%	92.1
COc1cc(/C=C/C(O)=C/C(=O)/C=C/c2ccc(O)cc2)ccc1O	%	92.5
Cc1c(C)c2c(c(C)c1O)CC[C@@](C)(CCC[C@H](C)CCC[C@H](C)CCCC(C)C)O2	%	69.5
O=C(/C=C/C=C/C=C/c1ccc(O)cc1)c1ccc(O)cc1	%	93.7
